Assignment: determine reported MIC for the given compounds.
Test system: vancomycin-intermediate Staphylococcus aureus
Assay Explanation: Broth microdilution MIC (Example 6)
Assay type: cell-based
Experimental Conditions: S. aureus isolate NRS 24 (hVISA)
One number for each entry, in µg/mL.

Sample records with MIC:
CN[C@H](CC(C)C)C(=O)N[C@H]1C(=O)N[C@@H](CC(N)=O)C(=O)N[C@H]2C(=O)N[C@H]3C(=O)N[C@H](C(=O)N[C@H](C(=O)O)c4cc(O)cc(O)c4-c4cc3ccc4O)[C@H](O)c3ccc(c(Cl)c3)Oc3cc2cc(c3O[C@@H]2O[C@H](CO)[C@@H](O)[C@H](O)[C@H]2O[C@H]2C[C@](C)(N)[C@H](O)[C@H](C)O2)Oc2ccc(cc2Cl)[C@H]1O
2
CCCCCCCCCC(=O)N[C@@H](Cc1c[nH]c2ccccc12)C(=O)N[C@H](CC(N)=O)C(=O)N[C@@H](CC(=O)O)C(=O)N[C@@H]1C(=O)NCC(=O)N[C@@H](CCCN)C(=O)N[C@@H](CC(=O)O)C(=O)N[C@H](C)C(=O)N[C@@H](CC(=O)O)C(=O)NCC(=O)N[C@H](CO)C(=O)N[C@@H]([C@H](C)CC(=O)O)C(=O)N[C@@H](CC(=O)c2ccccc2N)C(=O)O[C@@H]1C
0.5

// switching to the query compound
Look up and state reported MIC for CC(=O)NC[C@H]1CN(c2ccc(N3CCOCC3)c(F)c2)C(=O)O1
2
